Just for reference, ChEMBL document CHEMBL1143062 is where these values come from.

target_system: Polyunsaturated fatty acid 5-lipoxygenase (Homo sapiens) (UniProt P09917)
assay_procedure: Inhibition of partially purified human 5-LO expressed in Escherichia coli assessed as remaining 5-LO activity at 1 uM; values are per cent of control
Parameter: residual activity. Scope: all listed entries.
Only the number, expressed in %, is required.

Challenge: # return recorded residual activity for entry COc1cc(C)c2c(c1C)CC(C(C)C(=O)Nc1nccs1)CC2 (stereo not drawn)
Response given: 73

Challenge: # return recorded residual activity for entry CCCOc1cc(C)c2c(c1C)CC(C(C)C(=O)Nc1nccs1)CC2 (stereo not drawn)
Response given: 50

Challenge: # return recorded residual activity for entry COc1cc(C)c2c(c1C)CC(C(C)C(=O)Nc1ccccn1)CC2 (stereo not drawn)
Response given: 54

Challenge: # return recorded residual activity for entry CC1C(=O)OC2C1CCC1(C)Cc3sc(NC(=O)Nc4ccc(F)cc4F)nc3C(C)C21 (stereo not drawn)
Response given: 46

New cases:
Challenge: # return recorded residual activity for entry Cc1cc(OCCN(C)C)c(C)c2c1CCC(C(C)C(=O)Nc1ccccn1)C2 (stereo not drawn)
Response given: 56

Challenge: # return recorded residual activity for entry Cc1cc(OCCN2CCOCC2)c(C)c2c1CCC(C(C)C(=O)Nc1nccs1)C2 (stereo not drawn)
Response given: 74

Challenge: # return recorded residual activity for entry COCCOc1cc(C)c2c(c1C)CC(C(C)C(=O)NC1CCCC1)CC2 (stereo not drawn)
Response given: 67

Challenge: # return recorded residual activity for entry COc1ccccc1CC(=O)Nc1nc2c(s1)CC1(C)CCC3C(C)C(=O)OC3C1C2C (stereo not drawn)
Response given: 87

* * *

target_system: Polyunsaturated fatty acid 5-lipoxygenase (Homo sapiens, UniProt P09917)
Sequence (P09917 whole entry): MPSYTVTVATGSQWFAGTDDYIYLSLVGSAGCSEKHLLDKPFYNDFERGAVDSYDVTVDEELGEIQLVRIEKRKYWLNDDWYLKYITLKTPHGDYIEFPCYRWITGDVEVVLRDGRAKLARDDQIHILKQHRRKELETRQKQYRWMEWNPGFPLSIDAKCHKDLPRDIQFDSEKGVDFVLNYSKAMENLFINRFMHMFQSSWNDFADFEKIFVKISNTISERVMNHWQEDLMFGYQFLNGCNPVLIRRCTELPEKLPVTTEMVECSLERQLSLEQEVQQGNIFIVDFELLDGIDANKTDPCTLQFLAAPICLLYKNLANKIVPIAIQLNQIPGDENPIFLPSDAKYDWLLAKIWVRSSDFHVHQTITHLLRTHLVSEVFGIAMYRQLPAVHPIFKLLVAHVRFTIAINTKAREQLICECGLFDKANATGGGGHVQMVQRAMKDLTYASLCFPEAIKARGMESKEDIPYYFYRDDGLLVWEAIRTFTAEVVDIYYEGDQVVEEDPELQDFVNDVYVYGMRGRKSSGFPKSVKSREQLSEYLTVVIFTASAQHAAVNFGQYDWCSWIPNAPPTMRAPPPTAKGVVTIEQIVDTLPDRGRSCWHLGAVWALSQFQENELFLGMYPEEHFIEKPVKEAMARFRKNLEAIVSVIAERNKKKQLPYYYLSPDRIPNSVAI
assay_procedure: Inhibition of partially purified human 5-LO expressed in Escherichia coli
pIC50: −log10 of the molar value.
experimental_readout: pIC50

Example entries begin here.
Challenge: # return recorded pIC50 for entry COCCOc1cc(C)c2c(c1C)CC(C(C)C(=O)NC1CCCC1)CC2 (centres undefined)
Response given: < 5.00

Challenge: # return recorded pIC50 for entry COc1cc(C(=O)Nc2nc3c(s2)C[C@]2(C)CC[C@@H]4[C@H](OC(=O)[C@H]4C)[C@H]2[C@@H]3C)cc(OC)c1OC
Response given: < 5.00

Challenge: # return recorded pIC50 for entry COc1cc(C)c2c(c1C)CC(C(C)C(=O)NCc1cccs1)CC2 (centres undefined)
Response given: < 5.00

Now consider a different compound.
Challenge: # return recorded pIC50 for entry CC1C(=O)OC2C1CCC1(C)Cc3sc(NC(=O)NCc4ccccc4)nc3C(C)C21 (centres undefined)
Response given: < 5.00

* * *

Parameter: residual activity. Scope: all listed entries.
target_system: Polyunsaturated fatty acid 5-lipoxygenase (Homo sapiens)
assay_procedure: Inhibition of partially purified human 5-LO expressed in Escherichia coli assessed as remaining 5-LO activity at 1 uM; values are per cent of control
Only the number, expressed in %, is required.

Example entries begin here.
Challenge: # return recorded residual activity for entry COc1cc(C)c2c(c1C)CC(C(C)C(=O)NC(C)(C)C)CC2 (stereo not given)
Response given: 55

Challenge: # return recorded residual activity for entry COc1cc(C)c2c(c1C)CC(C(C)C(=O)NCc1ccco1)CC2 (stereo not given)
Response given: 47

Challenge: # return recorded residual activity for entry CC1C(=O)OC2C1CCC1(C)Cc3sc(NC(=O)c4ccc5c(c4)OCO5)nc3C(C)C21 (stereo not given)
Response given: 67

Challenge: # return recorded residual activity for entry Cc1nnsc1C(=O)Nc1nc2c(s1)CC1(C)CCC3C(C)C(=O)OC3C1C2C (stereo not given)
Response given: 87

New cases:
Challenge: # return recorded residual activity for entry Cc1cc(OCCN(C)C)c(C)c2c1CCC(C(C)C(=O)Nc1nccs1)C2 (stereo not given)
Response given: 55
